All values here come from ChEMBL document CHEMBL3244375.

# Test system: Rattus norvegicus
# TEST NAME: Hypolipidemic activity in Sprague-Dawley rat assessed as reduction in serum cholesterol level at 0.125 % compound administered in diet for 14 days relative to control
# Assay type: functional
# Parameters: scale not given: the % may be the effect or the level left
PROPERTY NAME: Activity (%)
# value in %; strip the unit string

Check the records and state Activity for CCCCC(Oc1cc(C(C)(C)C)c(O)c(C(C)(C)C)c1)C(=O)OCC (stereo not given)
-13

Provide Activity value for the following compound: CCCCC(Sc1ccc(C)cc1)C(=O)O (stereo not given)
-11

Name the recorded Activity of the item CCCC(C)(Sc1cc(C(C)(C)C)c(O)c(C(C)(C)C)c1)C(=O)O (stereo not given) in your answer.
12

State, in one line, measured Activity of CCCCC(Sc1ccc(Br)c(C)c1)C(=O)O (stereo not given)
-17

Indicate its recorded Activity; the compound in question is CCCC(Sc1cc(C(C)(C)C)c(O)c(C(C)(C)C)c1)C(=O)O (stereo not given)
-3

Annotate the compound CCCCC(Sc1cc(C2CCCC2)c(O)c(C2CCCC2)c1)C(=O)O (stereo not given) with its measured Activity.
-11

Look up Activity of CCCCC(C(=O)O)S(=O)(=O)c1cc(C(C)(C)C)c(O)c(C(C)(C)C)c1 (stereo not given) and report it.
-14

Indicate its recorded Activity; the compound in question is CCCCC(Sc1cc(C(C)(C)C)c(O)c(C(C)(C)C)c1)C(=O)O (racemic)
-32
